target: human Factor XIa (Homo sapiens)
Sequence (P03951 388-625 limits assumed): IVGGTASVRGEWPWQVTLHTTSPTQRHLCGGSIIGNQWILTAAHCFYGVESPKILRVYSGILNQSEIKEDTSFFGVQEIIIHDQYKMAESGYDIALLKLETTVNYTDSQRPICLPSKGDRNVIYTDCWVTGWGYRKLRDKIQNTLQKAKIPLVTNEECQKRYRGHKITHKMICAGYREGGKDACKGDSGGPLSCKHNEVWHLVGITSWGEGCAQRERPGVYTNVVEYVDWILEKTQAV
Sequence (P03951 19-387 partner limits assumed): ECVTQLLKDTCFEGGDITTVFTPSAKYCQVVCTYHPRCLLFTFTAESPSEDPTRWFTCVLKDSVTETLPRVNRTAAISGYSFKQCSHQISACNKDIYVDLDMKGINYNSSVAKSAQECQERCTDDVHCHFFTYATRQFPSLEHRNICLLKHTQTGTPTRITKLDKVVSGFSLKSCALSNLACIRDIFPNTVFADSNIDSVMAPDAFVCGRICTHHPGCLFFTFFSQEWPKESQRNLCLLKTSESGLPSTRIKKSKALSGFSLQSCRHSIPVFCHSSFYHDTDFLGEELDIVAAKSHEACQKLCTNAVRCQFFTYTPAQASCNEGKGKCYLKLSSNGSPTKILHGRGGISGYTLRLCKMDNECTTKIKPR
pKi: −log10 of the molar value. Structures can show the parent of a compound that is named as a salt.
Assign class 1 to entries whose pKi meets or exceeds 8; assign class 0 to the rest.

[[record]]
compound = "COC(=O)N1CCN2c3cccc(c3)[C@@H](n3cnc(-c4cc(Cl)ccc4-n4cc(Cl)nn4)cc3=O)CCCCCNC(=O)[C@H]2C1"
categorylabel = "class 1"

[[record]]
compound = "O=C1NCCCCC[C@H](n2cnc(-c3cc(Cl)ccc3-n3cc(Cl)nn3)cc2=O)c2cccc(c2)N2C(=O)CNC[C@H]12 [Example 7, hydrochloride]"
categorylabel = "class 0"

[[record]]
compound = "COC(=O)NC[C@H]1Nc2cccc(c2)[C@@H](n2cnc(-c3cc(Cl)ccc3-n3cc(Cl)nn3)cc2=O)CCCCCNC1=O"
categorylabel = "class 0"


Please indicate if the recorded pKi for O=C1NCCCC[C@H](n2cnc(-c3c(-n4cc(Cl)nn4)ccc(Cl)c3F)cc2=O)c2cc(F)cc(c2)N2C(=O)CC[C@H]12 meets or exceeds 8.
class 0

Please indicate if the recorded pKi for COC(=O)N1CCN2c3cccc(c3)[C@@H](N3CCC(c4cc(Cl)ccc4-n4cc(Cl)nn4)=CC3=O)CCCCCNC(=O)[C@H]2C1 meets or exceeds 8.
class 1
